Provide the reported inhibition of each item.
Test: growth inhibition, single agent and combos, cell-based, chromothripsis tumors, cisplatin or BGB combos (AID 1671450);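 also: cells exposed to compound for four days; 0% = vehicle DMSO and 100% = cell killing by high DMSO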
Details: HDN33 neuroblastoma cells, cisplatin combo, at 5 µM, stronger effect = higher value
Non-standard residues stand in square brackets, D forms with d. Residues, ends and D or L forms follow the SMILES beside them. Dolaproine = CO[C@@H]([C@@H]1CCCN1)[C@@H](C)C(=O)O; Dil = CC[C@H](C)[C@H](NC)[C@@H](CC(=O)O)OC; NMeV = CN[C@H](C(=O)O)C(C)C
One number for each entry, in %.

Examples with their reported inhibition follow.
# molecule, recorded-result
records = [
    ("Cc1cc(C#N)cc(C)c1Oc1nc(Nc2ccc(C#N)cc2)nc(N)c1Br", -9.1),
    ("Cc1cc(C=CC#N)cc(C)c1Nc1ccnc(Nc2ccc(C#N)cc2)n1", 4.37),
    ("C=C1CCC(O)CC1=CC=C1CCCC2(C)C1CCC2C(C)C=CC(C)C(C)C (stereo unspecified)", 6.61),
    ("CC(=O)C1(O)Cc2c(O)c3c(c(O)c2C(OC2CC(N)C(O)C(C)O2)C1)C(=O)c1ccccc1C3=O (stereo unspecified)", 99.9),
    ("CC1OC(n2cc(F)c(=O)[nH]c2=O)C(O)C1O (stereo unspecified)", -12.9),
]

Please give inhibition for each item listed below.
1. CC1CNC(=O)NC1=O (stereo unspecified)
2. CC[C@H](C)[C@@H]([C@@H](CC(=O)N1CCC[C@H]1[C@H](OC)[C@@H](C)C(=O)N[C@@H](Cc1ccccc1)C(=O)O)OC)N(C)C(=O)[C@@H](NC(=O)[C@@H](NC)C(C)C)C(C)C (H-[NMeV]V[Dil][Dolaproine]F-OH)
3. COc1cccc2c1C(=O)c1c(O)c3c(c(O)c1C2=O)CC(O)(C(C)=O)CC3OC1CC(N)C(O)C(C)O1 (stereo unspecified)
4. CCC1(O)C(=O)OCc2c1cc1n(c2=O)Cc2cc3cc(O)ccc3nc2-1 (stereo unspecified)
5. Cc1ccc([N+](=O)[O-])cc1S(=O)(=O)N(C)/N=C\c1cnc2ccc(Br)cn12
6. O=c1[nH]c(=O)n(C2CC(O)C(CO)O2)cc1I (stereo unspecified)

Reply text:
[-24, 69.6, 99.9, 94.5, 99.5, 3.9]

For the 7 molecules below, give their inhibition values.
1. C[C@@H]1COCCN1c1cc(C2(S(C)(=O)=O)CC2)nc(-c2cccc3[nH]ccc23)n1
2. CC(C)C(=O)SCCCCCCC(=O)Nc1nc(-c2ccccc2)cs1
3. C=C(NC(=O)C(=C)NC(=O)c1csc(C2=NC3c4csc(n4)C4NC(=O)c5csc(n5)C(C(C)(O)C(C)O)NC(=O)C5CSC(=N5)/C(=C/C)NC(=O)C(C(C)O)NC(=O)c5csc(n5)C3(CC2)NC(=O)C(C)NC(=O)C(=C)NC(=O)C(C)NC(=O)C(C(C)CC)NC2C=Cc3c(C(C)O)cc(nc3C2O)C(=O)OC4C)n1)C(N)=O (stereo unspecified)
4. Cn1cnc2[nH]c(=O)[nH]c(=O)c21
5. O=c1[nH]c(=S)[nH]c2nc(-c3ccccc3)c(-c3ccccc3)nc12
6. O=C1N=c2ccccc2=C1c1c(O)[nH]c2ccccc12
7. O=C(CCSc1nc2ccccc2c(=O)[nH]1)NC1CCC(c2nnc(-c3ccccc3)o2)CC1 (stereo unspecified)

Reply text:
1. 93.4
2. 45.1
3. 99.7
4. -9.77
5. -3.41
6. 51.4
7. 29.6
